In this section we review reported IC50 values for a set of molecules.
# MEASUREMENT NOTES: Induction of NO release assessed as nitrite level
# Format: physicochemical
Reply numerically in µM, unit not repeated.

| QUERY SMILES | TEST VALUE |
| --- | --- |
| O=C(N/N=C/c1c(-c2ccccc2)no[n+]1[O-])c1cccc([N+](=O)[O-])c1 | 912 |

Task item: # lookup: IC50 of "Cc1c(/C=N/NC(=O)c2ccc(Br)cc2)no[n+]1[O-]"
Reply: 102

Task item: # lookup: IC50 of "Cc1c(/C=N/NC(=O)c2ccc([N+](=O)[O-])cc2)no[n+]1[O-]"
Reply: 242
